B1: Segment polarity protein dishevelled homolog DVL-3, residues 2 to 81; numbered along this chain, Q92997 (parent)
chain: GETKIIYHLDGQETPYLVKLPLPAERVTLADFKGVLQRPSYKFFFKSMDDDFGVVKEEISDDNAKLPCFNGRVVSWLVSA

- Variants of: B1
- MEASUREMENT_DESCRIPTION: abundance fitness (aPCA) (normalised: wild type 0, dead -1); higher = more abundant; growth selection in yeast, the domain comes from the species named
- CONDITION_DETAILS: Homo sapiens
Would you mind sorting the entries by abundance fitness according to these classes? range A (below -0.7), range B (-0.7 to below -0.04), range C (-0.04 or more)

INSERT INTO assay_data (variant_descriptor, cat) VALUES
  ('V35G', 'range A'),
  ('V73C', 'range B');

State the class of the variant shown: K42Q
range B

State the class of the variant shown: L22M
range C

State the class of the variant shown: V55E
range B

State the class of the variant shown: D31N
range B

State the class of the variant shown: F45M
range A

Where do the numbers come from? From the Human Domainome abundance scans (Beltran et al. 2025).
